- Tested on: L1210 leukemia ip in BDF1 mice, survival T/C
- PROCEDURE DETAILS: NCI In Vivo Anticancer Drug Screen. Data for tumor model L1210 Leukemia (intraperitoneal) in B6D2F1 (BDF1) mice
- CONDITION INFO: endpoint: mean survival time; dose: 400.0 mg/kg/injection; schedule: Q04DX003 (ip); vehicle: saline with Tween-80; higher = longer survival
Inconclusive results and toxic doses are left out.
VALUE KIND: T/C

The examples below pair each entry with its known result.
T/C measured on "O=C(NC(=S)Nc1cc(C(F)(F)F)ccc1Cl)c1cccc([N+](=O)[O-])c1" = 89 % of control

T/C measured on "O=C(Oc1ccccc1)c1ccccc1Cl" = 110 % of control

New cases:
T/C measured on N\C([S-])=N/N=C\C(=N/N=C(\N)[S-])C(O)C(O)C(O)CO.[Ni+2] (stereo not given) = 91 % of control

T/C measured on "C/C=C(/Cl)c1c(C)cc(C)cc1C" = 101 % of control

T/C measured on "Cc1ccc(/C=C/C(=O)c2ccc(Cl)cc2)cc1" = 91 % of control

T/C measured on "CN(C)C=Nc1ccc([N+](=O)[O-])c2ccccc12" = 104 % of control

T/C measured on "[O-][n+]1c(CN2CCCCC2)nc2cccc3c2c1-c1ccccc1-3" = 100 % of control

T/C measured on "CCOC(=O)c1c(-c2cc(OC)c(OC)c(OC)c2)csc1N" = 94 % of control
